Recorded Ratio Ki for the following molecules
TARGET DESC: Mu-type opioid receptor (Homo sapiens)
Sequence (P35372 whole entry): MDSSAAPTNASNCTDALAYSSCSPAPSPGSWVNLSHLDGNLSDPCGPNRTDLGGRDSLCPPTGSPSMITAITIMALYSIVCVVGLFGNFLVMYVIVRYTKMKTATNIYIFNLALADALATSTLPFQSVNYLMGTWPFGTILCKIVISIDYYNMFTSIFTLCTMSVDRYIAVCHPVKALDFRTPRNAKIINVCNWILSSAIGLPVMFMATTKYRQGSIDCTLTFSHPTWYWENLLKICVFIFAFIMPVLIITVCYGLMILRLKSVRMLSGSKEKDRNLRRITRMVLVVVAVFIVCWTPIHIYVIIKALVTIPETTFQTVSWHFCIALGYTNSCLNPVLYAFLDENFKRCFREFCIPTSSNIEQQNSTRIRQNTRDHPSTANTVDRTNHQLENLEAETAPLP
METHOD SUMMARY: Potency index, ratio of PK20 Ki to test compound Ki for displacement of [3H]-DAMGO from recombinant human mu opioid receptor expressed in CHO cell membranes
Numbered stars: 1 amine (or outer) side, 2 acyl side, 3 side chain; on linkers, the order of the positions; unused ones are H or OH. Square brackets hold non-standard residues; d marks the D form. Peptide text beside a SMILES is read from it. X1 = O=C1[C@@H](N[*:1])Cc2ccccc2CN1CCC(=O)[*:2]; X2 = O=C([C@@H]1Cc2cc(O)ccc2CN1[*:1])[*:2]; Dmt = Cc1cc(O)cc(C)c1C[C@H](N)C(=O)O; Tle = CC(C)(C)[C@H](N)C(=O)O

- MOLECULE: "Cc1cc(O)cc(C)c1C[C@H](N)C(=O)N[C@H](CCCNC(=N)N)C(=O)N[C@H]1Cc2ccccc2CN(CCC(=O)N[C@@H](CCCNC(=N)N)C(=O)N[C@@H](CCCNC(=N)N)C(=O)N2CCC[C@H]2C(=O)N2Cc3ccc(O)cc3C[C@H]2C(=O)N[C@H](C(=O)N[C@@H](CC(C)C)C(=O)O)C(C)(C)C)C1=O (H-[Dmt][dR][X1]RRP[X2][Tle]L-OH)"
  Ratio Ki: 2
- MOLECULE: "Cc1cc(O)cc(C)c1C[C@H](N)C(=O)N[C@H](CCCNC(=N)N)C(=O)N[C@H]1Cc2ccccc2CN(CCC(=O)N[C@@H](CCCNC(=N)N)C(=O)N[C@@H](CCCNC(=N)N)C(=O)N2CCC[C@H]2C(=O)N[C@@H](Cc2ccc(O)cc2)C(=O)N[C@H](C(=O)N[C@@H](CC(C)C)C(=O)O)C(C)(C)C)C1=O (H-[Dmt][dR][X1]RRPY[Tle]L-OH)"
  Ratio Ki: 2
